Tested on: Male Sprague-Dawley rats
PROTOCOL_DETAILS: Formalin test (analgesia)
Type: in vivo
RECORDED_CONDITIONS: Rattus norvegicus, ip, intraperitoneally 5 minutes before injection of 50 μL 5% formalin into rear paw, nocifensive behaviors, read-out: (MED) minimally effective dose, formalin test
Where a name gives a salt, the structure may show the parent alone.
Exam item: assign condition met to entries whose minimal effective dose is below 6 µmol/kg and condition not met to entries at or above 6 µmol/kg. Note that a value of exactly 6 µmol/kg receives condition not met.

Example results:
MOLECULE: Cc1cncc(N2C[C@H]3CCN[C@H]3C2)c1 [Example 58, trihydrochloride]
LABEL: condition met

MOLECULE: Clc1ccc(N2C[C@@H]3CNC[C@@H]32)cn1 [Example 54, fumarate]
LABEL: condition met

MOLECULE: Clc1ccc(N2C[C@H]3CCN[C@H]3C2)cn1 (relative stereo) [Example 13, hydrochloride]
LABEL: condition met

MOLECULE: c1cncc(N2C[C@H]3CCCN[C@H]3C2)c1 (relative stereo) [Example 23, dihydrochloride]
LABEL: condition met

Below: the item to evaluate.
Q: is_below(minimal effective dose, 6 µmol/kg) for Brc1cncc(N2C[C@@H]3CNC[C@@H]32)c1 ?
A: condition not met
